Test system: NEK6
Conditions: concentration: 1 μM, replicates: in singlicate; n = 1;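 note: KINOMEscan kinase panel screen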
Quantity: %Inh

[[record]]
molecule = "CC(=O)Nc1cn2nc(Oc3cccc(NC(=O)c4cccc(C(F)(F)F)c4)c3)ccc2n1"
quantity = "%Inh"
meas_value = "3%"

[[record]]
molecule = "Cc1ccccc1CC(=O)N1CCc2cc(-c3cn(C)c4ncnc(N)c34)ccc21"
quantity = "%Inh"
meas_value = "0%"

[[record]]
molecule = "Cc1ccc(Nc2ccnc(Nc3ccc(C)c(F)c3)n2)cc1O.Cl"
quantity = "%Inh"
meas_value = "0%"

[[record]]
molecule = "Nc1ncnc2scc(-c3ccc(NC(=O)Cc4cc(F)ccc4F)cc3)c12.O=C(O)C(F)(F)F"
quantity = "%Inh"
meas_value = "3%"

[[record]]
molecule = "Cc1ccc(C)c(NC(=O)Nc2ccc(C)c(-c3ccc(C(=O)Nc4ccncc4)cc3)c2)c1"
quantity = "%Inh"
meas_value = "1%"

[[record]]
molecule = "O=C(Nc1c(F)cccc1F)c1cc(C(=O)c2ccccc2F)c[nH]1"
quantity = "%Inh"
meas_value = "0%"

[[record]]
molecule = "CSc1ccc(NC2=C(c3ccc(Cl)cc3)C(=O)NC2=O)cc1"
quantity = "%Inh"
meas_value = "33%"

[[record]]
molecule = "COC(=O)Nc1nc2ccc(Oc3ccc(NC(=O)Nc4cc(C(F)(F)F)ccc4F)cc3)cc2[nH]1.Cl"
quantity = "%Inh"
meas_value = "0%"


* * *

Tested on: CLK1
Conditions: concentration: 1 μM, replicates: in singlicate; n = 1
Binary classification by %Inh, with 20% as an inclusive lower bound for fulfilled; all other cases are not fulfilled.

[[record]]
compound = "CNc1nccc(-c2ccc3c(N)n[nH]c3c2)n1"
category = "fulfilled"

[[record]]
compound = "CCn1c(-c2nonc2N)nc2c(-c3ccccc3)ncc(OCCCN)c21.O=C(O)C(F)(F)F.O=C(O)C(F)(F)F"
category = "not fulfilled"

[[record]]
compound = "Cc1ccc(C)c(NC(=O)Nc2ccc(C)c(-c3ccc(C(=O)Nc4ccncc4)cc3)c2)c1"
category = "fulfilled"

[[record]]
compound = "Cc1ccc(O)cc1Nc1ccnc2ccc(C(C)(C)C)cc12"
category = "not fulfilled"

[[record]]
compound = "CN(c1ccc(NC(=O)N2CCN(CCCN3CCOCC3)CC2)cc1)c1ccnc(Nc2ccc(CS(C)(=O)=O)cc2)n1.Cl"
category = "not fulfilled"

[[record]]
compound = "CCn1cnc2c(NCc3ccccc3)ncnc21"
category = "not fulfilled"

[[record]]
compound = "O=C(Nc1n[nH]c2cc(-c3cccs3)ccc12)C1CC1"
category = "not fulfilled"

[[record]]
compound = "O=C(O)C(F)(F)F.O=c1[nH]ccc2nc(N[C@@H]3CCNC3)nc(Nc3ccc4c(c3)S(=O)(=O)CC4)c12"
category = "fulfilled"

[[record]]
compound = "O=C(Nc1n[nH]c2nc(-c3ccccc3O)ccc12)C1CC1"
category = "fulfilled"

[[record]]
compound = "Cc1ccc(O)cc1Nc1ccnc2cc(-c3ccc(CN4CCCCC4)o3)ccc12"
category = "fulfilled"

[[record]]
compound = "Fc1cc(Cl)ccc1Nc1ccnc2cc(-c3ccc(CN4CCSCC4)o3)ccc12"
category = "not fulfilled"

[[record]]
compound = "COc1cc(Nc2nccc(N3CCC(NS(=O)(=O)c4ccc(NC(C)=O)cc4)CC3)n2)cc(OC)c1OC"
category = "not fulfilled"

[[record]]
compound = "CN(c1ccc2c(c1)nc(NCc1ccccc1)n2C)c1ccnc(Nc2ccc(CS(C)(=O)=O)cc2)n1.Cl"
category = "fulfilled"

[[record]]
compound = "O=C(O)C(F)(F)F.O=c1[nH]ccc2nc(N[C@@H]3CCNC3)nc(Nc3cc(Cl)cc(Cl)c3)c12"
category = "fulfilled"

[[record]]
compound = "Cl.N#CCc1ccc(Nc2nccc(Nc3ccc(Oc4ccccc4)cc3)n2)cc1"
category = "fulfilled"

[[record]]
compound = "O=C1NC(=O)C(c2ccccc2Cl)=C1Nc1cccc(Cl)c1"
category = "fulfilled"

[[record]]
compound = "COc1cc(Nc2nccc(N3CCC(NC(=O)Nc4ccc5c(c4)OCO5)C3)n2)cc(OC)c1OC (stereo not shown)"
category = "fulfilled"

[[record]]
compound = "Cc1ccc(-c2ccc3occ(-c4ccc(S(C)=O)cc4)c3c2)nn1 (stereo not shown)"
category = "not fulfilled"

[[record]]
compound = "COc1cccc(CC(=O)N2CCc3cc(-c4cn(C)c5ncnc(N)c45)ccc32)c1"
category = "fulfilled"

[[record]]
compound = "Nc1cccc(-c2ccc3c(N)n[nH]c3c2)c1"
category = "fulfilled"

[[record]]
compound = "Cc1cc(-c2ccnc(Nc3cccc(C#N)c3)n2)cc(C)c1O"
category = "fulfilled"

[[record]]
compound = "Cc1ccc(NC(=O)c2ccnc(N3CCCCC3)c2)cc1-c1ccc(C(=O)NCC2CC2)cc1"
category = "not fulfilled"

[[record]]
compound = "COc1cccc(C2=C(Nc3cccc(O)c3)C(=O)NC2=O)c1"
category = "fulfilled"

[[record]]
compound = "Nc1ncnc2scc(-c3ccc(NC(=O)Cc4cc(F)ccc4F)cc3)c12.O=C(O)C(F)(F)F"
category = "not fulfilled"

[[record]]
compound = "COc1cccc(-c2nc(-c3ccccc3)[nH]c2-c2ccncc2)c1"
category = "fulfilled"

[[record]]
compound = "CN(C)CCOc1ccc(-c2cc(-c3ccc(Cl)c(O)c3)c(-c3ccncc3)[nH]2)cc1.Cl.Cl"
category = "fulfilled"

[[record]]
compound = "NCCC(NC(=O)c1cc(Br)c(-c2ccnc3[nH]ccc23)s1)c1ccccc1.O=C(O)C(F)(F)F.O=C(O)C(F)(F)F (stereo not shown)"
category = "fulfilled"

[[record]]
compound = "CCOc1nccc(-c2c(-c3ccc(F)cc3)ncn2C2CCNCC2)n1"
category = "not fulfilled"

[[record]]
compound = "N#CC1(c2cccc(C(=O)Nc3cccc(Oc4ccc5nc(NC(=O)C6CC6)sc5n4)c3)c2)CC1"
category = "not fulfilled"

[[record]]
compound = "O=C(Nc1c(F)cccc1F)c1cc(C(=O)c2ccccc2F)c[nH]1"
category = "fulfilled"

